Tested on: MCF7
assay.overview: Cytotoxic potency in MCF7 human mammary carcinoma cell line after 72 hr exposure by SRB test
Format: functional, cell-based
measurement.context: MCF7, 72 h
measure.name: IC50 (nM)
Please give a number only; it is taken to be in nM.

Query CC(=O)O[C@@]1([C@@H]2/C(C)=C(/O)C(=O)C3=C(C)[C@@H](OC(=O)[C@H](O)[C@H](CC(C)C)NC(=O)OC(C)(C)C)C[C@@](O)([C@H]2OC(=O)c2ccccc2)C3(C)C)CO[C@@H]1CCO yields IC50 of 11.2

###

# reported IC50; entries follow
Test system: MCF7
assay.overview: Cytotoxic potency in MCF7 human mammary carcinoma cell line after 72 hr exposure by SRB test
Type: functional, cell-based
measurement.context: MCF7, 72 h
All answers are understood in nM, so give the number only.

Solved cases (3 shown):
Short answer on MCF7 for COc1cccc(C(=O)O[C@H]2[C@@H]3[C@]4(OC(C)=O)CO[C@@H]4C[C@H](O)[C@@]3(C)C(=O)[C@H](OC(C)=O)C3=C(C)[C@@H](OC(=O)[C@H](O)[C@H](CC(C)C)NC(=O)OC(C)(C)C)[C@@H]4OC(=O)O[C@]42C3(C)C)c1 , IC50: 0.24

IC50 value, target or system MCF7, for CC(=O)O[C@H]1C(=O)[C@@]2(C)[C@H]([C@H](OC(=O)c3ccccc3)[C@]34OC(=O)O[C@H]3[C@H](OC(=O)[C@H](O)[C@H](CC(C)C)NC(=O)OC(C)(C)C)C(C)=C1C4(C)C)[C@]1(OC(C)=O)CO[C@@H]1C[C@@H]2O : 1.6

Fill in: MCF7 IC50 for COc1cccc(C(=O)O[C@H]2[C@H]([C@]3(OC(C)=O)CO[C@@H]3CCO)/C(C)=C(/O)C(=O)C3=C(C)[C@@H](OC(=O)[C@H](O)[C@H](CC(C)C)NC(=O)OC(C)(C)C)[C@@H]4OC(=O)O[C@]42C3(C)C)c1 = 0.5

Turning now to a further molecule:
Entry CC(=O)O[C@H]1C(=O)[C@@]2(C)[C@H]([C@H](OC(=O)c3ccccc3)[C@]3(O)C[C@H](OC(=O)[C@H](O)[C@@H](NC(=O)c4ccccc4)c4ccccc4)C(C)=C1C3(C)C)[C@]1(OC(C)=O)CO[C@@H]1C[C@@H]2O : IC50 on MCF7 = 0.6
